Tested on: KM12
Assay: Growth inhibition of human KM12 cells at 10 uM incubated for 48 hrs by sulforhodamine B assay relative to control
Type: functional
Conditions: read-out: GI
inhibition of growth at 10 µM: recorded values
Numeric only. Scale: %

Use the examples below as a reference point.
INSERT INTO assay_data (chemical_smiles, readout_value) VALUES
  ('O=C(CNCc1ccccc1)Nc1ccc(-c2nc3ccccc3s2)cc1', 2.66),
  ('O=C(CNc1nc(-c2ccc(Cl)cc2)cs1)Nc1ccc(-c2nc3ccccc3s2)cc1', 0.97),
  ('O=C(Cn1nnc2ccccc21)Nc1ccc(-c2nc3ccccc3s2)cc1', 8.6),
  ('O=C(CN1CCOCC1)Nc1ccc(-c2nc3ccccc3s2)cc1', -6.84),
  ('O=C(CNc1nc2ccccc2s1)Nc1ccc(-c2nc3ccccc3s2)cc1', 0.84);

Response field inhibition of growth at 10 µM (KM12) for item `O=C(CNc1c(Cl)cccc1Cl)Nc1ccc(-c2nc3ccccc3s2)cc1` : 8.67

The compound `NS(=O)(=O)c1ccc(NCC(=O)Nc2ccc(-c3nc4ccccc4s3)cc2)cc1` , tested on KM12, showed inhibition of growth at 10 µM of 38.4

Measured on KM12, `O=C(Cn1cncn1)Nc1ccc(-c2nc3ccccc3s2)cc1` has a documented inhibition of growth at 10 µM of 1.84

Recorded inhibition of growth at 10 µM for `O=C(CNc1ccc(Cl)cc1)Nc1ccc(-c2nc3ccccc3s2)cc1` on KM12 was 19.3

# inhibition of growth at 10 µM measured on KM12 for item `O=C(CN1C(=O)C(=O)c2ccccc21)Nc1ccc(-c2nc3ccccc3s2)cc1` = 0.88
